Values were extracted from a melting point compilation (Tetko et al.; mined from patent text by program, amines drawn as free bases though some values may be those of a salt).

Recorded melting point for the following compounds

Consider the following illustrative entries.
Compound: O=C(O)c1cc(-n2c(-c3ccccc3)cc3c2CCC3)ccc1O
Observed: 198 to 199 °C
//
Compound: COC(=O)c1ccccc1S(=O)(=O)NC(=O)Nc1nc(N(C)C)c2nc(C)c(C)nc2n1
Observed: 196 °C

input: GET /values?readout=melting point&item= CN1C(=O)C(C)(c2ccc(O)cc2)Sc2ccccc21 (stereo not drawn)
output: 158 to 160 °C

input: Dear colleague, I am looking for the recorded melting point of the following compound: CC1(CN2CCN(Cc3ccccc3)C2=O)Cn2cc([N+](=O)[O-])nc2O1 (stereo not drawn)
output: 180 to 181 °C

input: Dear colleague, I am looking for the recorded melting point of the following compound: "Cn1nc(C(F)(F)F)c(CSC2=NOC(C)(C)C2)c1OC(F)F"
output: 39 to 40 °C

input: Look at this compound and give its reported melting point. COc1ccc(N2CCN(c3c(C)c(C)c4c(c3C)C(C)(O)C(C)(C)O4)CC2)cc1 (stereo not drawn)
output: 139 to 141 °C

input: # input compound: "O=C(NCC1CCN(C[C@H]2COc3cccc(Cl)c3O2)CC1)c1cccnc1" ; wanted: its melting point
output: 52 to 54 °C

input: Can you share its melting point? I mean this compound: CN(C)CCC(Oc1ccc(C(F)(F)F)cc1)c1ccccc1 (stereo not drawn)
output: 117 to 119 °C

---

Let's look at some compounds and their measured melting point.

Compound: Cc1cccc(C2=C(c3cn(C)c4ccccc34)C(=O)NC2=O)c1
melting point: 243 °C
//
Compound: CCOc1ccc(C=CC(C)=O)cc1OC
melting point: 95 to 97 °C
//
Compound: CC(=O)S[C@H]1C[C@@H](C(=O)Nc2cccc(C(=O)NS(C)(=O)=O)c2)N(C(=O)OCc2ccc([N+](=O)[O-])cc2)C1
melting point: 240 to 242 °C

input: I would be grateful if you could share the reported melting point for CCCN(CCC)C1COc2cccc(C(=O)c3ccccc3F)c2C1 (centres undefined) .
output: 98.3 to 98.4 °C

input: Bench note: what melting point did "COc1cc2oc(=O)c(CCO)c(C)c2cc1OC(C)C" show?
output: 110 to 112 °C

input: Given "OCc1ccc(Cn2nc(OCc3ccccc3)c3ccccc32)o1" , state its recorded melting point.
output: 80 to 82 °C

input: What value of melting point has been reported for the following compound? "COc1ccc(C(N)=Nc2ccc(C(=O)O)cc2)cc1C12CC3CC(CC(C3)C1)C2"
output: 263 to 265 °C

---

Measured Property: melting point

Compound: COC(=O)CN(CC(COc1ccc(Cl)cc1)OC(C)=O)c1ccccc1 (stereo unspecified)
melting point: 82 °C
//
Compound: CC12CC=C3C(CCC4(CCSc5ncccn5)CC(O)CCC34C)C1CCC2O (stereo unspecified)
melting point: 156 °C
//
Compound: O=c1ccn(-c2ccccc2N2CCOCC2)nc1-c1ccnn1-c1ccccc1
melting point: 200 to 201 °C
//
Compound: CC(C)c1nccc2c(C(C)C(=O)O)cccc12 (stereo unspecified)
melting point: 138 °C

input: # get_value(readout='melting point', item= Cc1c(Br)cc(C(C)(CO)c2ccc(C(C)C)cc2)c(O)c1C (stereo unspecified) )
output: 110 to 111 °C

input: What does the data say about its melting point? Entry: COC(=O)c1ccc(OCCNC(=O)C2Cc3ccccc3N2S(=O)(=O)c2ccc(-c3ccc(F)cc3Cl)cc2)nc1 (stereo unspecified)
output: 78 to 85 °C

input: Request the reported melting point associated with "O=C(NOCCBr)Nc1ccc(Cl)c(Cl)c1"
output: 126 °C

input: // query melting point value for entry "CCc1cn(-c2nc(C)nc(NC)n2)c2ccccc12"
output: 174 to 175 °C

input: # input compound: "O=c1[nH]c2cc(Cl)cc(Cl)c2c(O)c1Sc1ccc(NC(=S)NCc2ccccc2)cc1" ; wanted: its melting point
output: 282 °C

input: For the compound shown here, COc1ccc2c(c1)C(=O)C(Cc1ccccc1)CO2 (stereo unspecified) , give the reported melting point.
output: 71 to 72 °C

input: Fill in: melting point of "O=c1oc(-c2ccc(Oc3ccccc3)cc2)cc(O)c1SCCc1ccccc1" is ___
output: 127 to 128 °C

input: Suppose we examine the compound "CC(C)(C)OC(=O)Nc1ccc(-c2ncn(-c3ccc(OC(F)(F)C(F)(F)F)cc3)n2)cc1" ; what melting point value has been reported?
output: 205 to 209 °C

input: What value of melting point has been reported for the following compound? "CC(=O)c1cnccc1-c1c(-c2ccccc2)nn2ccccc12"
output: 159 to 161 °C
